Target: recombinant DPP9 (Homo sapiens)
Assay: AP-AMC-based DPP9 substrate assay
Format: biochemical
Settings: read-out: IC50, DPP9 inhibition; Ala-Pro-aminomethylcoumarin (AP-AMC) substrate
Peptide text beside a SMILES is read from it.

{"compound": "CC(C)[C@H](N)C(=O)N1CCC[C@H]1C(=O)O [Val-Pro, reference compound] (H-Val-Pro-OH)", "IC50": "10 to 15 µM"}

====

Molecular target: recombinant DPP9 (Homo sapiens, UniProt Q86TI2)
Sequence (Q86TI2 whole entry, species assumed): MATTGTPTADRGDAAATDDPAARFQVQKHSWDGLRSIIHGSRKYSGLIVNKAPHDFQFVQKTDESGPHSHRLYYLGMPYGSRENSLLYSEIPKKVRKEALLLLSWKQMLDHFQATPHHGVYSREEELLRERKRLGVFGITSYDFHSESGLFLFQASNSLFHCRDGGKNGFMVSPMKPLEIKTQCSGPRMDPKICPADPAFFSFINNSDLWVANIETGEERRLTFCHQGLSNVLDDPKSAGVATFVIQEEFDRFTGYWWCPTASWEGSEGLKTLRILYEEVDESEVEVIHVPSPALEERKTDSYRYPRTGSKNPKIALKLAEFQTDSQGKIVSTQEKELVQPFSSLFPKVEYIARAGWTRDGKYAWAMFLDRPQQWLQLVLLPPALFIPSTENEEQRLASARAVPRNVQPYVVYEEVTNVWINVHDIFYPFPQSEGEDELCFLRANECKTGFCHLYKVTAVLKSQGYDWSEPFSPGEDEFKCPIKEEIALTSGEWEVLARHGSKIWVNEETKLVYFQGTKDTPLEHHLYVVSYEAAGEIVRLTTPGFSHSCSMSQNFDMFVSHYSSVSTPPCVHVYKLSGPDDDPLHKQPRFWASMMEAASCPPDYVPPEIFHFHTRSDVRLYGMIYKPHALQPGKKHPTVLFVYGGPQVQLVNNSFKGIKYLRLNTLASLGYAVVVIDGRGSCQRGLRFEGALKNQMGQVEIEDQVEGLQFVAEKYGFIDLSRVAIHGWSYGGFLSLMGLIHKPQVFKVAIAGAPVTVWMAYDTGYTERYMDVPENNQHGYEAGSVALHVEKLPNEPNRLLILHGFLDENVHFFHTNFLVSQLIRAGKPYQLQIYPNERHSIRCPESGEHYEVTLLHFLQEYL
Experiment: AP-AMC-based DPP9 substrate assay
Type: biochemical
Peptide text beside a SMILES is read from it.
assay readout: IC50

{"molecule": "CCC(C)C(N)C(=O)N1CCCC1C(=O)O (stereo not drawn) [Ile-Pro, reference compound] (H-Ile-Pro-OH; configuration not given here)", "assay readout": "IC50", "result": "10 to 15 µM"}

====

Tested on: MV4;11 cells
Assay: MV4
Type: cell-based
Conditions: 1 mM; PI uptake, CTG, CTF
Peptide text beside a SMILES is read from it.
assay readout: lytic cell death / cytotoxicity in MV4;11 cells

{"compound": "CC[C@H](C)[C@H](N)C(=O)N1CCC[C@H]1C(=O)OC [IP-OMe] (H-Ile-Pro-OMe)", "result": "cytotoxic"}
{"compound": "COC(=O)[C@@H]1CCCN1C(=O)[C@@H](N)C(C)C [VP-OMe] (H-Val-Pro-OMe)", "result": "cytotoxic"}

====

Target: PEPD (Homo sapiens, UniProt P12955)
Sequence (P12955 1-493): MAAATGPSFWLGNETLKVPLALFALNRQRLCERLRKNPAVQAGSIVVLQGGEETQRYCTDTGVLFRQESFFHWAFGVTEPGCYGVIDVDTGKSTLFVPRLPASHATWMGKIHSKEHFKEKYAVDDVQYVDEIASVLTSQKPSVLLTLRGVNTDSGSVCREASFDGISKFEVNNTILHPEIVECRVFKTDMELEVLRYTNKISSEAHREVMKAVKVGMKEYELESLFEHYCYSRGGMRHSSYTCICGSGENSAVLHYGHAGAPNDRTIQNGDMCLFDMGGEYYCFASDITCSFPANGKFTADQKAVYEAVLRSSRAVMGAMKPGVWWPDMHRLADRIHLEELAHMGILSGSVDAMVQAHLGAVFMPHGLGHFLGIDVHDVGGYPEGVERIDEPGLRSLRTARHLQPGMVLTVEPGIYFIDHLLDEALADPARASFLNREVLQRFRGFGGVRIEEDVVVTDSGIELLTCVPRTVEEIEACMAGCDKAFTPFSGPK
assay readout: IC50 (nM)

{"molecule": "CC(C)C[C@@H](N)C(O)C(=O)N1CCC[C@H]1C(=O)O (stereo partly shown)", "numeric readout": 160}
